Quick record: IC50, Glutamate carboxypeptidase 2 (Homo sapiens, UniProt Q04609).
Measurement name: IC50 (nM)

(P) O=C(O)CCC(CP(=O)(O)Cc1c(F)c(F)c(F)c(F)c1F)C(=O)O (stereo unspecified)
(Q) O=C(O)CCC(CCCC(=O)NO)C(=O)O (stereo unspecified)
(R) O=C(O)CCC(CC(=O)NO)C(=O)O (stereo unspecified)
// sort entries: IC50, high to low Answer format: the labels, in the requested order.
Q, R, P

---

Quick record: IC50, Glutamate carboxypeptidase 2 (Homo sapiens, UniProt Q04609).

Worked set:
1. CC(=O)N[C@@H](CC(=O)O)C(=O)NO :: > 100 µM
2. N[C@@H](CCC(=O)NO)C(=O)O [GLUTAMINE HYDROXAMATE] :: > 100 µM

Next up:
Endpoint output: IC50 of N[C@@H](CC(=O)NO)C(=O)O . Value?
> 100 µM
